# test: in vitro
# measurement.conditions: human
metric: CC50

Incoming: Name the recorded CC50 for CC(C)=CCC[C@](C)(O)[C@@H]1CC=C(C)CC1 [Levomenol, α-(−)-bisabolol] .
Outgoing: 3 µM

----------
# Tested on: SARS-CoV-2
# test: In vitro antiviral immunostaining assay in Vero E6 cells
# measurement.conditions: VeroE6 cells, FIG. 2
pIC50: −log10 of the molar value.
metric: pIC50

Incoming: Name the recorded pIC50 for C=C1CC[C@H](O)C/C1=C/C=C1\CCC[C@]2(C)[C@@H]([C@H](C)CCCC(C)C)CC[C@@H]12 [Vitamin D3, cholecalciferol] .
Outgoing: ~4.47
